# TARGET_OR_SYSTEM: UniProtKB P05067
# Sequence (P05067 whole entry): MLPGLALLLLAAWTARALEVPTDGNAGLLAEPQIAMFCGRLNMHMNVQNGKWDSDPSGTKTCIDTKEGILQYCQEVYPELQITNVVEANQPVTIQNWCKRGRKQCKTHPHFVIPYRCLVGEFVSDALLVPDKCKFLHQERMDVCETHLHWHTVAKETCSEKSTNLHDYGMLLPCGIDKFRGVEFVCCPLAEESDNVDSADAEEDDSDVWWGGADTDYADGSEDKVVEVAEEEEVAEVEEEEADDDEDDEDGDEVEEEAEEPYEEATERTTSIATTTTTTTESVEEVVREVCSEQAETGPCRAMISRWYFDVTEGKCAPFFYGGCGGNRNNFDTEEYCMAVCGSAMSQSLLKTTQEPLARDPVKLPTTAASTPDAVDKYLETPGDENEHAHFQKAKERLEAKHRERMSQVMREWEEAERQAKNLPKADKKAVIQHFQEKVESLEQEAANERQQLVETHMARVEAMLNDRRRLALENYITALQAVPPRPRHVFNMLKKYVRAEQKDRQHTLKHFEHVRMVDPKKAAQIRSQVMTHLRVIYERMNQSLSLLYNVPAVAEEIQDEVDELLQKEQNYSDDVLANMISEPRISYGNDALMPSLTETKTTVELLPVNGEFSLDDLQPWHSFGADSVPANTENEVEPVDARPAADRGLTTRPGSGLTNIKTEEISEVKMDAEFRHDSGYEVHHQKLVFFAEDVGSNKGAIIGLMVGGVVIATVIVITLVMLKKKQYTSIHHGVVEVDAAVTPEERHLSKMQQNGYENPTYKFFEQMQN
# TEST: Displacement of [125I]IMPY from beta amyloid in human corpse AD brain
ASSAY_READOUT: Ki (nM)

# SUBSTANCE_SMILES, ASSAY_READOUT, OBS_VALUE
records = [
    ("CN(C)c1ccc(-c2cc3cc(O)ccc3o2)cc1", "Ki", 2.8),
    ("COc1ccc2oc(-c3ccc(N)cc3)cc2c1", "Ki", 2.3),
]

Hey, just so you know, these numbers are from ChEMBL document CHEMBL1147646.
